# System: BXPC-3
# protocolSummary: Cytotoxicity against BxPC3 cells at 5 uM by [3H]thymidine inhibition assay
# Format: functional, cell-based
# settings: Homo sapiens
Where a SMILES comes first, the peptide text is derived from it. [ ]: non-standard residue; d: D form.
Would you mind telling me the reported inhibition at 5 µM of each entry?
Your answer should be a plain number; it is taken to be in %.

Exercise: Can you look up the measured inhibition at 5 µM of CC(C)C[C@@H]1NC(=O)[C@H](Cc2ccccc2)NC(=O)[C@H](CC(C)C)NC(=O)[C@@H](CO)NC(=O)[C@H](CC(C)C)NC1=O (cyclo(FLL[dS]L)) for me?
Key: 22

Exercise: Queued: `CC(C)C[C@@H]1NC(=O)[C@H](CC(C)C)NC(=O)[C@H](CC(C)C)NC(=O)[C@@H](Cc2c[nH]c3ccccc23)NC(=O)[C@H](CC(C)C)NC1=O`
Key: 30

Exercise: Queued: `CC(C)C[C@@H]1NC(=O)[C@H](CC(C)C)NC(=O)[C@H](Cc2ccccc2)NC(=O)[C@@H](CO)NC(=O)[C@H](CC(C)C)NC1=O`
Key: 25

Exercise: Queued: `CC(C)C[C@@H]1NC(=O)[C@H](CC(C)C)NC(=O)[C@H](Cc2ccccc2)N(C)C(=O)[C@H](CC(C)C)NC(=O)[C@H](CC(C)C)NC1=O`
Key: 62

Exercise: Queued: `CC(C)C[C@@H]1NC(=O)[C@H](CC(C)C)NC(=O)[C@H](CC(C)C)NC(=O)[C@@H](Cc2ccccc2)NC(=O)[C@H](CC(C)C)NC1=O`
Key: 64

Exercise: Queued: CC(C)C[C@@H]1NC(=O)[C@H](Cc2ccccc2)NC(=O)[C@@H](CC(C)C)NC(=O)[C@@H](C(C)C)NC(=O)[C@H](CC(C)C)NC1=O (cyclo(FLL[dV][dL]))
Key: 16

###

# Test system: BXPC-3
# protocolSummary: Cytotoxicity against BxPC3 cells at 5 uM by [3H]thymidine inhibition assay
# Type: functional, cell-based
# settings: Homo sapiens
Where a SMILES comes first, the peptide text is derived from it. [ ]: non-standard residue; d: D form. Cha = N[C@@H](CC1CCCCC1)C(=O)O; NMeL = CN[C@@H](CC(C)C)C(=O)O; dNMeV = CN[C@@H](C(=O)O)C(C)C
Would you mind telling me the reported inhibition at 5 µM of each entry?
Your answer should be a plain number; it is taken to be in %.

Exercise: Can you look up the measured inhibition at 5 µM of CC(C)C[C@@H]1NC(=O)[C@H](CC(C)C)NC(=O)[C@@H](Cc2ccccc2)NC(=O)[C@@H](CC(C)C)NC(=O)[C@@H](C(C)C)NC1=O (cyclo(LL[dV][dL][dF])) for me?
Key: 34

Exercise: Queued: CC(C)C[C@@H]1NC(=O)[C@H](Cc2ccccc2)NC(=O)[C@H](CC(C)C)NC(=O)[C@@H](Cc2ccccc2)NC(=O)[C@H](CC(C)C)NC1=O (cyclo(FLL[dF]L))
Key: 8

Exercise: Queued: `CC(C)C[C@@H]1NC(=O)[C@H](Cc2ccccc2)NC(=O)[C@H](CC(C)C)NC(=O)[C@@H](C(C)C)NC(=O)[C@H](CCCCNC(=O)Cc2ccccc2)NC1=O`
Key: 29

Exercise: Queued: `CC(C)C[C@@H]1NC(=O)[C@H](Cc2ccccc2)NC(=O)[C@H](CC(C)C)NC(=O)[C@H](CC(C)C)NC(=O)[C@H](CC(C)C)NC1=O`
Key: 42

Exercise: Queued: CC(C)C[C@@H]1NC(=O)[C@H](Cc2ccccc2)NC(=O)[C@H](CC(C)C)NC(=O)[C@@H](C(C)C)NC(=O)[C@H](CCCCN)NC1=O (cyclo(FLK[dV]L))
Key: 16

Exercise: Queued: CC(C)C[C@@H]1NC(=O)[C@H](C(C)C)NC(=O)[C@H](CC(C)C)N(C)C(=O)[C@H](CC(C)C)NC(=O)[C@H](Cc2ccccc2)NC1=O (cyclo(FL[NMeL]VL))
Key: 2

Exercise: Queued: CC(C)C[C@@H]1NC(=O)[C@@H](CC(C)C)NC(=O)[C@H](Cc2ccccc2)NC(=O)[C@H](CC(C)C)NC(=O)[C@@H](C(C)C)NC1=O (cyclo(F[dL]L[dV]L))
Key: 13

Exercise: Queued: `CC(C)C[C@@H]1NC(=O)[C@H](CC(C)C)NC(=O)[C@H](Cc2ccccc2)NC(=O)[C@@H](CC(C)C)NC(=O)[C@H](CC(C)C)NC1=O`
Key: 34

Exercise: Queued: `CC(C)C[C@@H]1NC(=O)[C@H](CC(C)C)NC(=O)[C@H](CC(C)C)NC(=O)[C@@H](Cc2ccc(O)cc2)NC(=O)[C@H](CC(C)C)NC1=O`
Key: 33

Exercise: Queued: CC(C)C[C@@H]1NC(=O)[C@@H](C(C)C)NC(=O)[C@H](CC(C)C)NC(=O)[C@H](CC(C)C)N(C)C(=O)[C@H](Cc2ccccc2)NC1=O (cyclo(F[NMeL]L[dV]L))
Key: 2

Exercise: Queued: CC(C)C[C@@H]1NC(=O)[C@H](C(C)C)NC(=O)[C@H](CC(C)C)N(C)C(=O)[C@@H](CC(C)C)NC(=O)[C@H](Cc2ccccc2)NC1=O (cyclo(F[dL][NMeL]VL))
Key: 71

Exercise: Queued: `CC(C)C[C@@H]1NC(=O)[C@H](Cc2ccccc2)NC(=O)[C@H](CC(C)C)N(C)C(=O)[C@H](CC(C)C)NC(=O)[C@H](CC(C)C)NC1=O`
Key: 46

Exercise: Queued: CC(C)C[C@@H]1NC(=O)[C@H](Cc2ccccc2)NC(=O)[C@H](CC(C)C)NC(=O)[C@@H](C(C)C)N(C)C(=O)[C@H](CC2CCCCC2)NC1=O (cyclo([Cha][dNMeV]LFL))
Key: 52
